assay: Solubility Evaluation 1: anthracene compounds in various solvents, visual check; assay type: physicochemical; set-up: key: A: it was confirmed that the compounds were dissolved in the dropped solvents; C: the compounds were not completely dissolved and undissolved residues remained; conditions: 30 mg compound, 1 g solvent, visual check
recorded-endpoint: Solubility in Tetralin

[[record]]
compound = "c1ccc(-c2ccc3cc(-c4cccc(-c5c6ccccc6c(-c6ccc7ccccc7c6)c6ccccc56)c4)ccc3c2)cc1 [Compound 8]"
recorded_endpoint = "Solubility in Tetralin"
reported_value = "C"

[[record]]
compound = "c1ccc(-c2ccc(-c3ccccc3-c3c4ccccc4c(-c4c5ccccc5c(-c5ccccc5-c5ccc(-c6ccccc6)cc5)c5ccccc45)c4ccccc34)cc2)cc1 [Compound 14]"
recorded_endpoint = "Solubility in Tetralin"
reported_value = "C"

[[record]]
compound = "c1ccc(-c2cc(-c3ccc4ccccc4c3)cc(-c3c4ccccc4c(-c4ccc5ccccc5c4)c4ccccc34)c2)cc1 [Compound 2]"
recorded_endpoint = "Solubility in Tetralin"
reported_value = "C"


* * *

assay: Solubility Evaluation 1: anthracene compounds in various solvents, visual check; type: physicochemical; design: key: A: it was confirmed that the compounds were dissolved in the dropped solvents; C: the compounds were not completely dissolved and undissolved residues remained; details: 30 mg compound, 1 g solvent, visual check
recorded-endpoint: Solubility in Xylene

[[record]]
chemical_smiles = "c1cc(-c2ccc3ccccc3c2)cc(-c2c3ccccc3c(-c3ccc4ccccc4c3)c3ccccc23)c1"
reported_value = "A"

[[record]]
chemical_smiles = "c1ccc2cc(-c3ccc(-c4c5ccccc5c(-c5ccc(-c6cccc7ccccc67)cc5)c5ccccc45)cc3)ccc2c1"
reported_value = "A"

[[record]]
chemical_smiles = "c1ccc(-c2cc(-c3ccc4ccccc4c3)cc(-c3c4ccccc4c(-c4ccc5ccccc5c4)c4ccccc34)c2)cc1"
reported_value = "A"

[[record]]
chemical_smiles = "c1ccc2cc(-c3ccc(-c4ccc(-c5c6ccccc6c(-c6ccc7ccccc7c6)c6ccccc56)cc4)c4ccccc34)ccc2c1"
reported_value = "C"


* * *

assay: Solubility Evaluation 1: anthracene compounds in various solvents, visual check; format: physicochemical; parameters: key: A: it was confirmed that the compounds were dissolved in the dropped solvents; C: the compounds were not completely dissolved and undissolved residues remained; conditions: 30 mg compound, 1 g solvent, visual check
recorded-endpoint: Solubility in Methylethylketone

Use the examples below as a reference point.
[[record]]
chemical_smiles = "c1cc(-c2ccc3ccccc3c2)cc(-c2c3ccccc3c(-c3ccc4cc(-c5ccc6ccccc6c5)ccc4c3)c3ccccc23)c1"
reported_value = "C"

[[record]]
chemical_smiles = "c1ccc(-c2ccc(-c3ccccc3-c3c4ccccc4c(-c4c5ccccc5c(-c5ccccc5-c5ccc(-c6ccccc6)cc5)c5ccccc45)c4ccccc34)cc2)cc1"
reported_value = "C"

[[record]]
chemical_smiles = "c1ccc2cc(-c3ccc(-c4ccc(-c5c6ccccc6c(-c6ccc7ccccc7c6)c6ccccc56)cc4)c4ccccc34)ccc2c1"
reported_value = "C"

[[record]]
chemical_smiles = "c1ccc(-c2ccc3cc(-c4cccc(-c5c6ccccc6c(-c6ccc7ccccc7c6)c6ccccc56)c4)ccc3c2)cc1"
reported_value = "C"

[[record]]
chemical_smiles = "c1ccc(-c2ccc3cc(-c4cccc(-c5c6ccccc6c(-c6ccc(-c7cccc8ccccc78)cc6)c6ccccc56)c4)ccc3c2)cc1"
reported_value = "C"


Let us examine a further case.
Query block: Annotate the compound c1ccc2cc(-c3ccc(-c4c5ccccc5c(-c5ccc(-c6cccc7ccccc67)cc5)c5ccccc45)cc3)ccc2c1 with its measured Solubility in Methylethylketone.
Result block: C
